Molecular target: human α7 nAChR (Homo sapiens)
Construct: expressed in transfected cells; host or cells: GH4C1 cells (rat pituitary, ATCC CCL-82.2)
Sequence (P36544 23-502): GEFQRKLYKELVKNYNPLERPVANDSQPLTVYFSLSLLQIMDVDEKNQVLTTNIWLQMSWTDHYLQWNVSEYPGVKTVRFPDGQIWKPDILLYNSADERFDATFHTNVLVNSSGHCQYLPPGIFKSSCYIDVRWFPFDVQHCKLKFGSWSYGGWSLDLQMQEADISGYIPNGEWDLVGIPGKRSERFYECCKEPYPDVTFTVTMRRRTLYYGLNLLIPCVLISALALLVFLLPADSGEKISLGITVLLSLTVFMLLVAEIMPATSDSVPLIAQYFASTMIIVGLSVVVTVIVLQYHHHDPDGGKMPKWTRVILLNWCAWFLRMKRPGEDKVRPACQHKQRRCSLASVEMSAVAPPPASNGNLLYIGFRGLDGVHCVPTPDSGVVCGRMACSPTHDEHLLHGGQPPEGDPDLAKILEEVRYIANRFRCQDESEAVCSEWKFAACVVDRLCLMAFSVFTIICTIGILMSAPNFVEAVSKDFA
Assay: Evaluation of PAM activity with human α7 nACh receptor stably expressing cells (aequorin luminescence, FDSS7000)
Assay type: cell-based
Details: test compound 10 μmol/L; ACh at EC20; ratio of RLU (Max-Min) of test-compound wells to control wells; human α7 nAChR expressing GH4C1 cells
quantity measured: α7PAM (%) @ 10 μmol/L
One number for each entry, in %.

# example entries with known answers
CCc1ccc2c(cnn2C2CCN(C(=O)NC3CCCOC3)CC2)c1 (stereo not drawn) :: 1425
O=C(NC1CCC(F)(F)CC1)N1CCC(n2ncc3cc(OC4CC4)ccc32)CC1 :: 1463

// batch mode: one α7PAM (%) @ 10 μmol/L value per listed entry
1. CCOc1ccc2c(cnn2C2CCN(C(=O)NC3CCCCC3)CC2)c1
2. CCc1ccc2c(cnn2C2CCN(C(=O)NC3CCOCC3)CC2)c1OC
3. CCc1ccc2c(cnn2[C@H]2CC[C@@H](NC(=O)[C@H]3CC[C@H](OC)CC3)CC2)c1

6779
1093
410

// batch mode: one α7PAM (%) @ 10 μmol/L value per listed entry
1. O=C(NC1CCC(F)(F)CC1)N1CCC(n2ncc3c(OC(F)F)cccc32)CC1
2. CCCc1ccc2c(cnn2C2CCN(C(=O)NC3CCC(OC)CC3)CC2)c1 (stereo not drawn)
3. COCc1c(C)ccc2c1cnn2C1CCN(C(=O)NC2CCC(F)(F)CC2)CC1
4. Cc1ccc2c(c1)c(C)nn2C1CCN(C(=O)NC2CCC(F)(F)CC2)CC1
5. CCc1ccc2c(cnn2[C@H]2CC[C@@H](NC(=O)C3CCC(F)(F)CC3)CC2)c1
6. CCOc1ccc2c(cnn2C2CCN(C(=O)NC3CCC(F)(F)CC3)CC2)c1
7. CCc1ccc2c(cnn2[C@H]2CC[C@@H](NC(=O)NC3CCC(F)(F)CC3)CC2)c1
8. CCc1ccc2c(cnn2C2CCN(C(=O)N[C@H]3CC[C@H](OC)CC3)CC2)c1

1. 370
2. 420
3. 800
4. 1576
5. 2344
6. 1673
7. 1368
8. 1764

// batch mode: one α7PAM (%) @ 10 μmol/L value per listed entry
1. COCCCc1ccc2c(cnn2C2CCN(C(=O)N[C@H]3CC[C@H](OC)CC3)CC2)c1
2. CCc1cccc2c1cnn2C1CCN(C(=O)NC2CCC(F)(F)CC2)CC1
3. CC(C)Oc1ccc2c(cnn2C2CCN(C(=O)NC3CCCCC3)CC2)c1
4. CCCc1ccc2c(cnn2C2CCN(C(=O)NC3CCOCC3)CC2)c1
5. COC1CCC(NC(=O)N2CCC(n3ncc4c(Br)cccc43)CC2)CC1 (stereo not drawn)

1: 430; 2: 1133; 3: 1202; 4: 1025; 5: 89
